For each entry below, report its Flu value.
- METHOD_SUMMARY: Spectroscopic measurements (absorption, emission, quantum yield, extinction coefficient)
- Assay type: physicochemical
- CONDITIONS: BDNCA library, fluorescence emission
No unit in the answer, only the number.

## Task # return recorded Flu for entry CC1=CC(/C=C/c2ccc(-c3ccccn3)cc2)=[N+]2C1=C(c1ccc(NC(=O)CCl)cc1)c1cccn1[B-]2(F)F [BDNCA-88]
## Result 584

## Task # return recorded Flu for entry CC1=CC(/C=C/c2ccc(/C=C/c3ccccc3)cc2)=[N+]2C1=C(c1ccc(NC(=O)CCl)cc1)c1cccn1[B-]2(F)F [BDNCA-69]
## Result 610

## Task # return recorded Flu for entry COC(=O)c1ccc(-c2ccc(/C=C/C3=[N+]4C(=C(c5ccc(NC(=O)CCl)cc5)c5cccn5[B-]4(F)F)C(C)=C3)cc2)cc1 [BDNCA-179]
## Result 589

## Task # return recorded Flu for entry CCc1ccccc1/C=C/c1cc(C)c2n1[B-](F)(F)[N+]1=CC=CC1=C2c1ccc(NC(=O)CCl)cc1 [BDNCA-251]
## Result 578

## Task # return recorded Flu for entry CC1=CC(/C=C/c2cc(Cl)ccc2O)=[N+]2C1=C(c1ccc(NC(=O)CCl)cc1)c1cccn1[B-]2(F)F [BDNCA-121]
## Result 585

## Task # return recorded Flu for entry CC1=CC(/C=C/c2c(C)cc(C)cc2C)=[N+]2C1=C(c1ccc(NC(=O)CCl)cc1)c1cccn1[B-]2(F)F [BDNCA-108]
## Result 582

## Task # return recorded Flu for entry CC1=CC(/C=C/c2ccc(Oc3ccc(C)cc3)cc2)=[N+]2C1=C(c1ccc(NC(=O)CCl)cc1)c1cccn1[B-]2(F)F [BDNCA-300]
## Result 590

## Task # return recorded Flu for entry COc1cccc(/C=C/C2=[N+]3C(=C(c4ccc(NC(=O)CCl)cc4)c4cccn4[B-]3(F)F)C(C)=C2)c1Cl [BDNCA-281]
## Result 576

## Task # return recorded Flu for entry CC1=CC(/C=C/c2cc(Br)ccc2O)=[N+]2C1=C(c1ccc(NC(=O)CCl)cc1)c1cccn1[B-]2(F)F [BDNCA-73]
## Result 585

## Task # return recorded Flu for entry CC1=CC(/C=C/c2ccc(Cl)cc2Cl)=[N+]2C1=C(c1ccc(NC(=O)CCl)cc1)c1cccn1[B-]2(F)F [BDNCA-147]
## Result 578

These data points were gathered from patent US9423396B2.
